// values below are reported MCF7 proliferation IC50
target: human HER3 endogenously expressed on human cancer cells (SK-Br-3, BT-474, MCF7) (human, UniProt P21860 20-1342); experiment: cell-based or functional assay
Return type: number; implicit unit nM.

Some binders with recorded MCF7 proliferation IC50:
- MOR12920 (antibody, human IgG1, lambda, V domains shown) VH: QVQLVQSGAEVKKPGASVKVSCKASGYTFTGYYMHWVRQAPGQGLEWMGDIEPYHGKPLYAQKFQGRVTMTRDTSISTAYMELSRLRSEDTAVYYCARGSFYTRDSYFDVWGQGTLVTVSS VL: DIALTQPASVSGSPGQSITISCTGTSSDVGTYNQVSWYQQHPGNAPKLMIYGVSKRPSGVSNRFSGSKSGNTASLTISGLQAEDEADYYCSSRDLIGHYVFGGGTKLTVLG: 1.92
- MOR13655 (antibody, human IgG1, lambda, V domains shown, Tested as IgG) VH: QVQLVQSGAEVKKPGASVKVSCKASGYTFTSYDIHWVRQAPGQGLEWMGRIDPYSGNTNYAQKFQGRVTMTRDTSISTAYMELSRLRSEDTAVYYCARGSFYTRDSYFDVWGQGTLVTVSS VL: DIALTQPASVSGSPGQSITISCTGTSSDVGTYNQVSWYQQHPGKAPKLMIYGVSKRPSGVSNRFSGSKSGNTASLTISGLQAEDEADYYCSSATQKPDVTVFGGGTKLTVLG: 0.086

In the following, a different binder is considered.
Reported MCF7 proliferation IC50 of MOR12615 (antibody, human IgG1, lambda, V domains shown, Tested as IgG) VH: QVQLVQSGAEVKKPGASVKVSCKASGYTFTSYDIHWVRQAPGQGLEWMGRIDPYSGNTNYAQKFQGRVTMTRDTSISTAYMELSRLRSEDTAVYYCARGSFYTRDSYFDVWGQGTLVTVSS VL: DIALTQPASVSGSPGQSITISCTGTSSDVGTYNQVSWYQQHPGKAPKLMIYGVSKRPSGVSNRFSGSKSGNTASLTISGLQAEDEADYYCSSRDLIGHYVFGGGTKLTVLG : 2.54

Origin of measurements: patent US20130251703A1
